The measured values listed here are drawn from patent US5877204A.

Assay: Ames tests (mutagenicity and toxicity), with or without rat liver metabolic activation system S9
Type: cell-based
Details: -S9
Rule: Toxicity under 500 μG plate^-1 gives F, otherwise T.

Check out these entries, answers already filled in.
1) O=C(O)/C=C\C(=O)NCCCCCCOc1ccc(C(=O)c2ccccc2)cc1; T
2) O=C(O)/C=C\C(=O)Nc1ccc(/C=C/C(=O)O)cc1; T
3) O=C(O)/C=C\C(=O)Nc1ccc(C(=O)O)cc1; T
4) O=C(O)/C=C/c1ccc(N2C(=O)C=CC2=O)cc1; F
5) O=C(c1ccccc1)c1ccc(N2C(=O)C=CC2=O)cc1 [Example 4, N-(4-benzoylphenyl)maleimide]; F

Asked: In plain terms: is recorded Toxicity at least 500 μG plate^-1 for O=C(O)/C=C\C(=O)Nc1ccc(C(=O)c2ccccc2)cc1 ?
Given back: T

Asked: Threshold query (Toxicity >= 500 μG plate^-1) on CCN1C(=O)C=CC1=O
Given back: F

Asked: Quick check, Toxicity >= 500 μG plate^-1? O=C(c1ccccc1)c1ccc(OCCCCCCN2C(=O)C=CC2=O)cc1 [Example 12, N-[6-(4-benzoylphenoxy)-hexyl]-maleimide]
Given back: F
